Tested on: R275C/beta1
assay-overview: BK channel mutant inhibitors and activators – cell-based, U2OS BacMam, thallium flux, beta subunits, selectivity assay, profiling panel (AID 1259406);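 further: initial slope of Thallos dye fluorescence rise after thallium is added; log ratio against the mean of 0.3% DMSO vehicle wells on the same plate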
condition-context: U2OS BacMam BK variants, at 30 µM
log fold change Tl+ flux overview
Respond using a number only.

Reference set (4 entries):
[[record]]
molecule = "CCCc1c(OCCCCc2nn[nH]n2)ccc(C(C)=O)c1O"
experimental_target = "R275C/beta1"
value_observed = 0.282

[[record]]
molecule = "CC(C)c1ccc2oc3nc(N)c(C(=O)O)cc3c(=O)c2c1"
experimental_target = "R275C/beta1"
value_observed = -0.0119

[[record]]
molecule = "Nc1[nH]c(=O)ncc1F"
experimental_target = "R275C/beta1"
value_observed = -0.0522

[[record]]
molecule = "Cc1cnc(NC(=O)C2=C(O)c3ccccc3S(=O)(=O)N2C)s1"
experimental_target = "R275C/beta1"
value_observed = 0.00607


Query block: Answer with the recorded log fold change Tl+ flux for the molecule listed here: Cc1[nH]cnc1CN1CCc2c(c3ccccc3n2C)C1=O
Result block: 0.0308

Query block: Answer with the recorded log fold change Tl+ flux for the molecule listed here: C[C@H]1COc2c(C3(N)CC3)c(F)cc3c(=O)c(C(=O)O)cn1c23
Result block: -0.0326

Query block: Answer with the recorded log fold change Tl+ flux for the molecule listed here: C[C@]12C[C@H](O)[C@H]3[C@@H](CCC4=CC(=O)CC[C@@]43C)[C@@H]1CC[C@@H]2C(=O)CO
Result block: 0.00127

Query block: Answer with the recorded log fold change Tl+ flux for the molecule listed here: O=C(c1ccc(F)cc1)C1CCN(CCn2c(=S)[nH]c3ccccc3c2=O)CC1
Result block: -0.0174

Query block: Answer with the recorded log fold change Tl+ flux for the molecule listed here: COc1ccc(CC2c3cc(OC)c(OC)cc3CC[N+]2(C)CCC(=O)OCCCCCOC(=O)CC[N+]2(C)CCc3cc(OC)c(OC)cc3C2Cc2ccc(OC)c(OC)c2)cc1OC (configuration not stated)
Result block: 0.0284
